Tested on: SK-MEL-2
test.method.notes: NCI tumour cell line growth inhibition, 48 h
Calls of active or inactive are those of the source. No stated cut-off is given here; in the data, active = GI50 up to about 1.1 µM and inactive = higher.
property.label: GI50

Solved cases below.
Problem: Provide the reported GI50 (system: SK-MEL-2) for C#CCC[C@@H]1O[C@@]1(C)CC/C=C(\C)CC/C=C/C=O
Result: 55.7 µM (inactive)

Problem: Provide the reported GI50 (system: SK-MEL-2) for CC[N+]1(C)CCC(O)(/C=C/c2ccc(Cl)cc2)C(C(=O)/C=C/c2ccc(Cl)cc2)C1 (stereo unspecified)
Result: 15.8 µM (inactive)

Problem: Provide the reported GI50 (system: SK-MEL-2) for CCc1oc2ccc(OC)c3c2c1C=CC=C3
Result: > 100 µM (inactive)

Problem: Provide the reported GI50 (system: SK-MEL-2) for COc1nc2ccc(COc3ccc(C(=O)O)cc3)cc2nc1OC
Result: > 100 µM (inactive)

Problem: Provide the reported GI50 (system: SK-MEL-2) for O=c1cccccc1NCCOCCNc1cccccc1=O
Result: > 100 µM (inactive)

Could you tell me GI50 for each of these compounds? They are listed below.
1. C[n+]1cn(C2=C([N-]S(=O)(=O)c3ccccc3)C(=O)c3ccccc3C2=O)c2ccccc21
2. Cc1cc(C2CCCCC2)n(O)c(=O)c1
3. Cn1cc(NC(=O)c2cc(NC(=O)CCCCCCCC(=O)Nc3cc(C(=O)Nc4cc(C(=O)NCCC(=N)N)n(C)c4)n(C)c3)cn2C)cc1C(=O)NCCC(=N)N

Result:
1. 11.5 µM (inactive)
2. 21.3 µM (inactive)
3. 14.1 µM (inactive)

----------
Test system: OVCAR-8
test.method.notes: NCI tumour cell line growth inhibition, 48 h
Activity calls are given as the source filed them. Cut-off read from the data, not from the text of the source: active = GI50 up to about 1.1 µM and inactive = higher.
property.label: GI50

Solved cases below.
Problem: Input CC1=CC2C(C(C)C)CC1C1C(=O)OC(=O)C21 (centres undefined) , output reported GI50.
Result: 65.6 µM (inactive)

Problem: Input O=c1[nH]c2cc(Cl)ccc2nc1/C(=N/Nc1ccccc1)C(O)c1ccco1 (centres undefined) , output reported GI50.
Result: > 100 µM (inactive)

Problem: Input COc1cc(S(=O)(=O)N/N=C/C=C/c2ccccc2)c(OC)cc1NC(C)=O , output reported GI50.
Result: 12.2 µM (inactive)

Problem: Input O=C(O)CN(CC(=O)O)C1CCCCC1N1CC(=O)OC(=O)C1 (centres undefined) , output reported GI50.
Result: > 100 µM (inactive)

Could you tell me GI50 for each of these compounds? They are listed below.
1. CN(C)c1ccc(/C=C(\NC(=O)c2ccccc2)c2nc3ccc4c(c3[nH]2)C(=O)c2ccccc2C4=O)cc1
2. O=c1c2nn[nH]c2nc2n1CC(c1ccccc1)S2 (centres undefined)
3. CC(=O)[C@]1(O)Cc2c(O)c3c(c(O)c2[C@@H](OC2CC(N)C(O)C(C)O2)C1)C(=O)c1c(OCc2ccccc2)cccc1C3=O (some centres undefined)

Result:
["37.4 µM (inactive)", "> 100 µM (inactive)", "1.48 µM (inactive)"]

Could you tell me GI50 for each of these compounds? They are listed below.
1. Clc1c(Cl)c(Cl)c2nn(C3CCCO3)nc2c1Cl (centres undefined)
2. COC(=O)C1=C(OC(=O)c2ccccc2)C(C(=O)OC)[C@@]2(O)[C@@H](C(=O)OC)[C@H](C)C[C@@H]1[C@@H]2C(=O)OC (some centres undefined)

Result:
1. 63.5 µM (inactive)
2. 26.4 µM (inactive)
